- test_description: Binding affinity to bacterial beta-lactamase VIM-1 expressed in Escherichia coli BL21 (DE3) assessed as inhibition constant using nitrocefin as substrate by spectrophotometric assay
- Set-up: species or system Bacteria
A collection of compounds and their measured pKi
Conceptually, pKi converts a concentration in mol/L into minus its log10.

Example compounds with recorded pKi:
Query string: Give a short answer stating reported pKi for Sc1nncn1/N=C/c1ccc(Br)cc1 .
Result string: 4.24

Query string: Assign pKi to the following record: CCN(CC)c1ccc(CNn2cn[nH]c2=S)cc1
Result string: 3.65

Query string: Determine its reported pKi: S=c1[nH]ncn1NCc1ccc2c(c1)OCO2
Result string: 3.92

New cases:
Query string: Provide measured pKi value, entry: S=c1[nH]ncn1/N=C/c1c[nH]c2ccccc12
Result string: 4.02

* * *

- test_description: Inhibition of bacterial beta-lactamase CTX-M-15 using nitrocefin as substrate incubated for 10 mins and measured every 10 seconds for 10 mins
- Design: species or system Bacteria
measured_metric: IC50

Query string: Quote IC50 reported for O=C(O)c1c(F)ccc2c1OB(O)[C@@H]1C[C@H]21 please.
Result string: 1.2 nM

* * *

- test_description: Inhibition of bacterial beta-lactamase P99 using nitrocefin as substrate incubated for 10 mins and measured every 10 seconds for 10 mins
- Set-up: species or system Bacteria
measured_metric: pIC50
The scale used: pIC50 is minus the common logarithm of the concentration in molar units.

Query string: Please indicate pIC50 recorded for O=C(O)c1c(F)ccc2c1OB(O)[C@@H]1C[C@H]21 [XERUBORBACTAM]
Result string: 7.66
